TARGET ENTITY: porcine heart citrate synthase (CS) (Sus scrofa)
Construct: porcine heart citrate synthase (CS); from tissue; host or cells: porcine heart
Sequence (P00889 28-464): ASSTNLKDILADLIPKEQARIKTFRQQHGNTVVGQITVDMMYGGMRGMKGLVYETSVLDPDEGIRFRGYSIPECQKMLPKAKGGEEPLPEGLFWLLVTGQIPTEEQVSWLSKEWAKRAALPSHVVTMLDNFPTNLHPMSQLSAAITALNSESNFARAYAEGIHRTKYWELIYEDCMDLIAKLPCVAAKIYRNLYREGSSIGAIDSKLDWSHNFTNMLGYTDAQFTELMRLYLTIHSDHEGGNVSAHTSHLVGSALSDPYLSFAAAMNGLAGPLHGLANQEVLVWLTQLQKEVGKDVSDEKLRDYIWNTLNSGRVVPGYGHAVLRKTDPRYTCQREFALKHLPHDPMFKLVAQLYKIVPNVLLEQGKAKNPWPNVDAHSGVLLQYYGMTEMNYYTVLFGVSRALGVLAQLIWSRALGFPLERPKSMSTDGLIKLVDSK
ASSAY PROTOCOL: Citrate synthase thermal aggregation (turbidity at 360 nm)
Type: biochemical
ASSAY CONDITIONS: CS 96 μg/mL, 45° C.; compound 10,000X; standard deviation in parenthesis
Residues, ends and D or L forms follow the SMILES beside them.
Assign inhibition index to each entry below.

Worked set:
compound="O=C(O)CCCC(=O)O [glutarate, glutaric acid]" result="1.4 (0.5)"
compound="O=C(O)CCCCC(=O)O [adipate, adipic acid]" result="1.2 (0.5)"
compound="NCCCC(=O)O [4-aminobuytrate, 4-aminobutyric acid]" result="0.6 (0.1)"
compound="O=C(O)C(=O)O [oxalate, oxalic acid]" result="1.9 (0.5)"
compound=NCCCCCCCN result="0.6 (0.2)"
compound=NCCCCCCN result="0.6 (0.2)"
compound="NCCCCC(=O)O [5-aminovalerate, 5-aminovaleric acid]" result="0.7 (0.1)"
compound="NCCCCCC(=O)O [6-aminocaproate, 6-aminocaproic acid]" result="0.5 (0.1)"

For each of the compounds below, note its inhibition index.
1. NCC(=O)NCC(=O)NCC(=O)O [triglycine] (H-Gly-Gly-Gly-OH)
2. NCCC(=O)O
3. NCCN
4. NCC(=O)O
5. O=C(O)CCC(=O)O [succinate, succinic acid]
6. O=C(O)CCCCCCCC(=O)O [azelaate, azelaic acid]
7. N.O=CO [ammonium formate]
8. O=C(O)CCCCCC(=O)O [pimelate, pimelic acid]

[A]
["0.7 (0.2)", "0.6 (0.1)", "1.8 (0.5)", "0.8 (0.2)", "2.1 (0.5)", "0.7 (0.6)", "0.6 (0.0)", "1.4 (0.4)"]

----------
TARGET ENTITY: chicken egg white lysozyme (Gallus gallus)
Construct: chicken egg white lysozyme [Sigma]; purchased Sigma; host or cells: egg white
Sequence (P00698 19-147): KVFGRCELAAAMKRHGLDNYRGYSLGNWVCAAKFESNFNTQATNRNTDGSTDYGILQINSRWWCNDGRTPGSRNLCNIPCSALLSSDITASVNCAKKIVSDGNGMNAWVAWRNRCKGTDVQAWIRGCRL
ASSAY PROTOCOL: Lysozyme aggregation (turbidity at 360 nm) induced by DTT
Type: biochemical
ASSAY CONDITIONS: Lysozyme 0.4 mg/mL, 25° C., DTT; compound 1,000×; standard deviation in parenthesis
Residues, ends and D or L forms follow the SMILES beside them.
MEASURED QUANTITY: inhibition index

Worked set:
molecule="NCC(=O)NCC(=O)NCC(=O)O [triglycine] (H-Gly-Gly-Gly-OH)" target_entity="chicken egg white lysozyme (Gallus gallus)" measured_quantity="inhibition index" result="1.6 (0.3)"
molecule=NCCCN target_entity="chicken egg white lysozyme (Gallus gallus)" measured_quantity="inhibition index" result="2.7 (0.4)"
molecule="N.O=CO [ammonium formate]" target_entity="chicken egg white lysozyme (Gallus gallus)" measured_quantity="inhibition index" result="1.5 (0.3)"

For each of the molecules below, note its inhibition index.
1. O=C(O)CCCCCCCC(=O)O [azelaate, azelaic acid]
2. O=C(O)C(=O)O [oxalate, oxalic acid]

[A]
["1.0 (0.2)", "1.6 (1.0)"]

----------
TARGET ENTITY: porcine somatotropin (pST) (Sus scrofa, UniProt P01248)
Construct: purchased Pfizer, Inc., Groton, Conn., USA (provided, not bought)
Sequence (P01248 27-216): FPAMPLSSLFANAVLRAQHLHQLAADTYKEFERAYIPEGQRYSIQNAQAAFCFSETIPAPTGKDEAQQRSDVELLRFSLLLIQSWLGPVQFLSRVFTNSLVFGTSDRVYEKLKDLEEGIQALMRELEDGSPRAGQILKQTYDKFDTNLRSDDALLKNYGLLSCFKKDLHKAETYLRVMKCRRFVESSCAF
ASSAY PROTOCOL: Porcine somatotropin aggregation (turbidity at 360 nm) with PEG 8000
Type: biochemical
ASSAY CONDITIONS: pST 1.27 mg/mL, 60° C., compound 2,000X, standard deviation in parenthesis
MEASURED QUANTITY: inhibition index

Worked set:
compound="NCCCCCCC(=O)O [7-aminoheptanoate, 7-aminoheptanoic acid]" result="1.6 (0.2)"
compound="O=C(O)CCC(=O)O [succinate, succinic acid]" result="2.1 (0.3)"
compound=NCCN result="1.3 (0.1)"
compound="O=C(O)CCCCCCC(=O)O [suberate, suberic acid]" result="1.7 (0.3)"
compound=NCC(=O)O result="1.2 (0.2)"

For each of the compounds below, note its inhibition index.
1. NCCCN
2. NCCCCCN
3. NCCCCC(=O)O [5-aminovalerate, 5-aminovaleric acid]
4. NCCC(=O)O
5. NCCCCCC(=O)O [6-aminocaproate, 6-aminocaproic acid]
6. O=C(O)CCCCCCCC(=O)O [azelaate, azelaic acid]
7. O=C([O-])CC(=O)[O-].[Na+].[Na+] [malonate, sodium malonate]

[A]
["1.7 (0.2)", "1.7 (0.4)", "0.7 (0.1)", "0.8 (0.1)", "1.2 (0.2)", "1.3 (0.3)", "4.9 (0.5)"]

For each of the compounds below, note its inhibition index.
1. O=C(O)C(=O)O [oxalate, oxalic acid]
2. O=C(O)CCCCC(=O)O [adipate, adipic acid]
3. NCCCCCCN

[A]
["1.5 (0.3)", "3.9 (0.7)", "1.9 (0.2)"]

----------
Assign inhibition index to each entry below.
TARGET ENTITY: bovine alpha-lactalbumin (Bos taurus, UniProt P00711)
Construct: purchased Sigma
Sequence (P00711 20-142): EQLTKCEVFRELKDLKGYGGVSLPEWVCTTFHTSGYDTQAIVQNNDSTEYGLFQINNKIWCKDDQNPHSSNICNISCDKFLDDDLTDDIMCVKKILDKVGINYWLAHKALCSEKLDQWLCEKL
ASSAY PROTOCOL: Alpha-lactalbumin aggregation (turbidity at 360 nm) induced by DTT
Format: biochemical
ASSAY CONDITIONS: α Lactalbumin 0.4 mg/mL, 37° C., DTT; compound 1,000×; standard deviation in parenthesis

Worked set:
molecule="O=C(O)CCC(=O)O [succinate, succinic acid]" result="1.1 (0.3)"
molecule="NCCCCC(=O)O [5-aminovalerate, 5-aminovaleric acid]" result="2.1 (0.8)"
molecule="Cl.N=C(N)N [guanidine HCl, guanidine hydrochloride]" result="1.7 (0.6)"
molecule=NCCCCCCCN result="1.8 (0.7)"
molecule=NCCCCCCN result="1.3 (0.4)"
molecule=NCCCN result="0.9 (0.3)"
molecule=NCCN result="0.7 (0.4)"
molecule="O=C(O)CCCCC(=O)O [adipate, adipic acid]" result="1.2 (0.3)"

For each of the molecules below, note its inhibition index.
1. NCCC(=O)O
2. O=C(O)CCCCCCC(=O)O [suberate, suberic acid]

[A]
2.1 (0.4)
2.0 (0.7)

For each of the molecules below, note its inhibition index.
1. N.O=CO [ammonium formate]
2. O=C(O)CCCC(=O)O [glutarate, glutaric acid]

[A]
1: 0.8 (0.3); 2: 1.1 (0.2)

----------
Assign inhibition index to each entry below.
TARGET ENTITY: Bovine insulin (Bos taurus, UniProt P01317)
Construct: purchased Sigma, St. Louis, Mo., USA
Sequence (P01317 25-54 limits assumed): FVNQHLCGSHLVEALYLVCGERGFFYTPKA
Sequence (P01317 85-105 limits assumed): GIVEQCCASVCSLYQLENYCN
ASSAY PROTOCOL: Insulin aggregation (turbidity at 360 nm) induced by DTT
Format: biochemical
ASSAY CONDITIONS: Insulin 0.25 mg/mL, 25° C., DTT; compound 100×; standard deviation in parenthesis
Residues, ends and D or L forms follow the SMILES beside them.

Worked set:
compound="NCC(=O)O [glycine]" target_entity="Bovine insulin (Bos taurus, UniProt P01317)" measured_quantity="inhibition index" result="1.0 (0.3)"
compound="O=C(O)CCCCCC(=O)O [pimelate, pimelic acid]" target_entity="Bovine insulin (Bos taurus, UniProt P01317)" measured_quantity="inhibition index" result="1.4 (0.6)"
compound="NCCC(=O)O [beta-alanine]" target_entity="Bovine insulin (Bos taurus, UniProt P01317)" measured_quantity="inhibition index" result="1.1 (0.1)"
compound="O=C(O)CCCCCCCC(=O)O [azelaate, azelaic acid]" target_entity="Bovine insulin (Bos taurus, UniProt P01317)" measured_quantity="inhibition index" result="1.5 (0.4)"
compound="NCCCCCCCN [1,7-diaminoheptane]" target_entity="Bovine insulin (Bos taurus, UniProt P01317)" measured_quantity="inhibition index" result="2.7 (1.0)"

For each of the compounds below, note its inhibition index.
1. NCCCCCC(=O)O [6-aminocaproate, 6-aminocaproic acid]
2. NCCCCCCN [1,6-diaminohexane]
3. NCCCCN [1,4-diaminobutane]
4. Cl.N=C(N)N [guanidine HCl, guanidine hydrochloride]
5. O=C(O)CCCC(=O)O [glutarate, glutaric acid]

[A]
["1.4 (0.2)", "1.5 (0.3)", "1.4 (0.4)", "0.9 (0.4)", "1.0 (0.2)"]

For each of the compounds below, note its inhibition index.
1. NCCCN [1,3-diaminopropane]
2. O=C(O)CCC(=O)O [succinate, succinic acid]

[A]
1. 1.3 (0.3)
2. 1.0 (0.3)

For each of the compounds below, note its inhibition index.
1. O=C([O-])CC(=O)[O-].[Na+].[Na+] [malonate, sodium malonate]
2. O=C(O)CCCCCCC(=O)O [suberate, suberic acid]
3. N.O=CO [ammonium formate]
4. NCC(=O)NCC(=O)NCC(=O)O [triglycine] (H-Gly-Gly-Gly-OH)
5. NCCCC(=O)O [4-aminobuytrate, 4-aminobutyric acid]
6. NCCCCC(=O)O [5-aminovalerate, 5-aminovaleric acid]
7. O=C(O)CCCCC(=O)O [adipate, adipic acid]

[A]
1. 1.2 (0.5)
2. 1.6 (0.3)
3. 1.2 (0.5)
4. 1.4 (0.1)
5. 1.2 (0.3)
6. 1.2 (0.1)
7. 1.2 (0.7)
